system.under.test: canine TRPM8 (Canis lupus familiaris, UniProt Q1A7N1)
Construct: expressed in transfected cells
Sequence (Q1A7N1 1-1104): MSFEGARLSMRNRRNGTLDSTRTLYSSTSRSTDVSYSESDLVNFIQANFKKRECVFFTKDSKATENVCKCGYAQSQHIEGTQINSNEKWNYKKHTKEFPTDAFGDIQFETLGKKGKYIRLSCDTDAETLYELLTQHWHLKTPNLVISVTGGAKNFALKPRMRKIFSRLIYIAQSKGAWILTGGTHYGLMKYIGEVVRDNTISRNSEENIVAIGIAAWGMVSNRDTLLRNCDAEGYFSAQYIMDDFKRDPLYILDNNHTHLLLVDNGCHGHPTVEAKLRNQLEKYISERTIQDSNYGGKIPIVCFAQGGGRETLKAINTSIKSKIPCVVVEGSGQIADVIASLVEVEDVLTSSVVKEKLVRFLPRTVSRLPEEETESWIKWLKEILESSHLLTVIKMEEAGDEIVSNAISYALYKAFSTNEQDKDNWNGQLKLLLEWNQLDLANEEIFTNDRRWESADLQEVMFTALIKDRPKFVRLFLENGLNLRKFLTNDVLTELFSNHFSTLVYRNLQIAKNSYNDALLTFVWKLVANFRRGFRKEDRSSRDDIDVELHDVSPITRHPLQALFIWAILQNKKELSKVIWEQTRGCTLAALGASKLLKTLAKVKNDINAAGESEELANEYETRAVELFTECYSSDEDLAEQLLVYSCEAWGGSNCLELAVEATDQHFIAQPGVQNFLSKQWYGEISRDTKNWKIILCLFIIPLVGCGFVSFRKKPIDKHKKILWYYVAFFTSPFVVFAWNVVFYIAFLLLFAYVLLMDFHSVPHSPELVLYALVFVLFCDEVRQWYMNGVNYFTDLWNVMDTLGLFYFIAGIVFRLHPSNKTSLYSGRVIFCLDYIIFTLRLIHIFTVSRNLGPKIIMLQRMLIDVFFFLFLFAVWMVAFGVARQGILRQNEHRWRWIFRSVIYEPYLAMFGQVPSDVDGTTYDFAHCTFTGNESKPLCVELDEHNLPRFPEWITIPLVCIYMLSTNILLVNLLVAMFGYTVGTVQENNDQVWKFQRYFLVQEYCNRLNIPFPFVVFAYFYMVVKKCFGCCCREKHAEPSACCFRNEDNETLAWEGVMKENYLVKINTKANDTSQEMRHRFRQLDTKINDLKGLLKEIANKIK
protocol.summary: In vitro canine TRPM8 functional assay (Ca2+-sensitive dye, FLIPR/FDSS, icilin activation)
Format: cell-based
run.conditions: HEK293 cells expressing canine TRPM8, icilin activation; eight-point dose-response; read-out: IC50
pIC50: −log10 of the molar value.
quantity.name: pIC50

                                   compound                         system_under_test  endpoint_value
0  CCOP(=O)(OCC)C(Cc1ccc(F)c(F)c1)c1sc2ccccc2c1-c1ccccc1F (racemic) [Cpd 216]  canine TRPM8 (Canis lupus familiaris, UniProt Q1A7N1)            6.90
1  CCOP(=O)(OCC)C(Cc1ccc(OC(F)F)cc1)c1sc2ccccc2c1Br (centres unmarked) [Cpd 311]  canine TRPM8 (Canis lupus familiaris, UniProt Q1A7N1)            7.28
2  CC(C)OP(=O)(OC(C)C)C(Cc1ccc(F)c(C(F)(F)F)c1)c1sc2ccccc2c1Cl (centres unmarked) [Cpd 188]  canine TRPM8 (Canis lupus familiaris, UniProt Q1A7N1)            7.19
3  CCOP(=O)(Cc1cc2ccccc2s1)OCc1ccccc1Cl (racemic) [Cpd 105]  canine TRPM8 (Canis lupus familiaris, UniProt Q1A7N1)            6.00
4  CCOP(=O)(OCC)C(Cc1ccc(F)cc1C(F)(F)F)c1sc2ccccc2c1Br (racemic) [Cpd 245]  canine TRPM8 (Canis lupus familiaris, UniProt Q1A7N1)            6.91
5  CC(C)OP(=O)(OC(C)C)C(Cc1cccc(C(F)(F)F)c1Cl)c1sc2ccccc2c1Cl (centres unmarked) [Cpd 177]  canine TRPM8 (Canis lupus familiaris, UniProt Q1A7N1)            6.86
6  CCOP(=O)(OCC)C(Cc1cccc(C(F)(F)F)c1)c1sc2ccccc2c1Br (centres unmarked) [Cpd 141]  canine TRPM8 (Canis lupus familiaris, UniProt Q1A7N1)            7.29
7  CC(C)OP(=O)(OC(C)C)C(Cc1ccc(F)c(F)c1)c1oc2cccc(F)c2c1Br (racemic) [Cpd 205]  canine TRPM8 (Canis lupus familiaris, UniProt Q1A7N1)            7.30
